Reference source for all entries: the supplement of paper PMC10307832

test system: NCI-H2126; experiment: relative viability (nuclei count vs DMSO), 5 days (fraction); higher = more cells survive; conditions: first compound 0.08 µM
ASSAY METRIC: relative viability
Keep the answer to the number alone.

query: State, for NCI-H2126, measured relative viability of the molecule listed here: Oc1nc(-c2ccc(C(F)(F)F)cc2)nc2c1CSCC2 [XAV939] + C[C@]1(O)C[C@@H](c2nc(-c3ccc4ccc(-c5ccccc5)nc4c3)c3c(N)nccn32)C1 [Linsitinib] (partner 1 µM)
result: 0.727

query: Please indicate recorded relative viability of C=C1C(=O)O[C@@H](CCCCCCCC)[C@@H]1C(=O)O [C-75] + COc1cc2c(Oc3ccc(NC(=O)C4(C(=O)Nc5ccc(F)cc5)CC4)cc3F)ccnc2cc1OCCCN1CCOCC1 [Foretinib] (partner 0.25 µM) measured with NCI-H2126.
result: 1.1

query: Fetch value of relative viability on NCI-H2126 for C=C1C(=O)O[C@@H](CCCCCCCC)[C@@H]1C(=O)O [C-75] + CC(C)C[C@H](NC(=O)[C@H](Cc1ccccc1)NC(=O)c1cnccn1)B(O)O [Bortezomib] (partner 0.002 µM) .
result: 1.1

query: # lookup: NCI-H2126 relative viability, key = Oc1nc(-c2ccc(C(F)(F)F)cc2)nc2c1CSCC2 [XAV939] + CC(=O)c1c(C)c2cnc(Nc3ccc(N4CCNCC4)cn3)nc2n(C2CCCC2)c1=O [Palbociclib] (partner 0.5 µM)
result: 0.301

query: // fetch relative viability for C=C1C(=O)O[C@@H](CCCCCCCC)[C@@H]1C(=O)O [C-75] + NC(=O)Nc1cc(-c2cccc(F)c2)sc1C(=O)N[C@H]1CCCNC1 [AZD7762] (partner 0.2 µM) ; system: NCI-H2126
result: 0.953

###

tested on: NCI-H2170; experiment: relative viability (nuclei count vs DMSO), 5 days (fraction); higher = more cells survive; details: first compound 0.005 µM
ASSAY METRIC: relative viability

query: Identify relative viability associated with the compound CC1(C)CCC(c2ccc(Cl)cc2)=C(CN2CCN(c3ccc(C(=O)NS(=O)(=O)c4ccc(N[C@H](CCN5CCOCC5)CSc5ccccc5)c(S(=O)(=O)C(F)(F)F)c4)cc3)CC2)C1 [Navitoclax] + COc1cc2c(Oc3ccc(NC(=O)C4(C(=O)Nc5ccc(F)cc5)CC4)cc3F)ccnc2cc1OCCCN1CCOCC1 [Foretinib] (partner 0.25 µM)
result: 0.969

query: Please supply the value of reported relative viability for the item CC1(C)CCC(c2ccc(Cl)cc2)=C(CN2CCN(c3ccc(C(=O)NS(=O)(=O)c4ccc(N[C@H](CCN5CCOCC5)CSc5ccccc5)c(S(=O)(=O)C(F)(F)F)c4)cc3)CC2)C1 [Navitoclax] + CS(=O)(=O)N1CCN(Cc2cc3nc(-c4cccc5[nH]ncc45)nc(N4CCOCC4)c3s2)CC1 [Pictilisib] (partner 1 µM)
result: 0.306

###

test system: LU99A; assay: relative viability (nuclei count vs DMSO), 5 days (fraction); higher = more cells survive; settings: first compound 0.08 µM
# note: exactly 0.6 is not below, so it is No; use Yes for relative viability strictly under it

query: Could you please tell me whether relative viability recorded for Oc1nc(-c2ccc(C(F)(F)F)cc2)nc2c1CSCC2 [XAV939] + O=C(c1cc(Cc2n[nH]c(=O)c3ccccc23)ccc1F)N1CCN(C(=O)C2CC2)CC1 [Olaparib] (partner 8 µM) is less than 0.6?
result: Yes

query: Would you kindly verify if relative viability of Oc1nc(-c2ccc(C(F)(F)F)cc2)nc2c1CSCC2 [XAV939] + CC(=O)Nc1cccc(-n2c(=O)n(C3CC3)c(=O)c3c(Nc4ccc(I)cc4F)n(C)c(=O)c(C)c32)c1 [Trametinib] (partner 0.02 µM) is strictly less than 0.6?
result: No

query: Please check: relative viability for C=C1C(=O)O[C@@H](CCCCCCCC)[C@@H]1C(=O)O [C-75] + Cc1nc(NC(=O)N2CCC[C@H]2C(N)=O)sc1-c1ccnc(C(C)(C)C(F)(F)F)c1 [Alpelisib] (partner 2 µM) , strictly under 0.6 or not?
result: Yes

query: relative viability under 0.6? Item: Oc1nc(-c2ccc(C(F)(F)F)cc2)nc2c1CSCC2 [XAV939] + O=C(CCCCCCC(=O)Nc1ccccc1)NO [Vorinostat] (partner 1 µM)
result: Yes

query: Is relative viability strictly under 0.6 for the entry Oc1nc(-c2ccc(C(F)(F)F)cc2)nc2c1CSCC2 [XAV939] + COc1cc2c(Oc3ccc(NC(=O)C4(C(=O)Nc5ccc(F)cc5)CC4)cc3F)ccnc2cc1OCCCN1CCOCC1 [Foretinib] (partner 0.25 µM) ?
result: No

query: # TODO verify relative viability < 0.6 strictly for this compound: C=C1C(=O)O[C@@H](CCCCCCCC)[C@@H]1C(=O)O [C-75] + CC(=O)c1c(C)c2cnc(Nc3ccc(N4CCNCC4)cn3)nc2n(C2CCCC2)c1=O [Palbociclib] (partner 0.5 µM)
result: Yes

###

system: NCI-H1650; assay: relative viability (nuclei count vs DMSO), 5 days (fraction); higher = more cells survive; settings: first compound 1 µM
I'd appreciate it if you could supply relative viability values for the items below.

query: Specify reported relative viability for the compound shown: NC(=O)Nc1cc(-c2cccc(F)c2)sc1C(=O)N[C@H]1CCCNC1 [AZD7762] + Cc1nc(Nc2ncc(C(=O)Nc3c(C)cccc3Cl)s2)cc(N2CCN(CCO)CC2)n1 [Dasatinib] (partner 0.075 µM)
result: 0.19

query: Provide one value: measured relative viability of NC(=O)Nc1cc(-c2cccc(F)c2)sc1C(=O)N[C@H]1CCCNC1 [AZD7762] + O=C(CCCCCCC(=O)Nc1ccccc1)NO [Vorinostat] (partner 1 µM)
result: 0.157

query: Determine from records and report relative viability for NC(=O)Nc1cc(-c2cccc(F)c2)sc1C(=O)N[C@H]1CCCNC1 [AZD7762] + CS(=O)(=O)N1CCN(Cc2cc3nc(-c4cccc5[nH]ncc45)nc(N4CCOCC4)c3s2)CC1 [Pictilisib] (partner 1 µM)
result: 0.155

query: Give relative viability for NC(=O)Nc1cc(-c2cccc(F)c2)sc1C(=O)N[C@H]1CCCNC1 [AZD7762] + CCNC(=O)c1noc(-c2cc(C(C)C)c(O)cc2O)c1-c1ccc(CN2CCOCC2)cc1 [Luminespib] (partner 0.01 µM)
result: 0.192

###

Could you please report measured relative viability for the items listed next?
tested on: NCI-H1666; experiment: relative viability (nuclei count vs DMSO), 5 days (fraction); higher = more cells survive; settings: first compound 0.1 µM
Give a plain numeric answer without units written out.

query: Return relative viability (reported value) for this compound: NC(=O)Nc1cc(-c2cccc(F)c2)sc1C(=O)N[C@H]1CCCNC1 [AZD7762] + CS(=O)(=O)CCNCc1ccc(-c2ccc3ncnc(Nc4ccc(OCc5cccc(F)c5)c(Cl)c4)c3c2)o1 [Lapatinib] (partner 2 µM)
result: 0.73

query: Please give measured relative viability of the following entry: NC(=O)Nc1cc(-c2cccc(F)c2)sc1C(=O)N[C@H]1CCCNC1 [AZD7762] + O=C(CCCCCCC(=O)Nc1ccccc1)NO [Vorinostat] (partner 1 µM)
result: 1.22

query: Specify measured relative viability for NC(=O)Nc1cc(-c2cccc(F)c2)sc1C(=O)N[C@H]1CCCNC1 [AZD7762] + CCNC(=O)c1noc(-c2cc(C(C)C)c(O)cc2O)c1-c1ccc(CN2CCOCC2)cc1 [Luminespib] (partner 0.01 µM) .
result: 1.18

query: Report relative viability, nothing else, for this compound: NC(=O)Nc1cc(-c2cccc(F)c2)sc1C(=O)N[C@H]1CCCNC1 [AZD7762] + Cc1nc(Nc2ncc(C(=O)Nc3c(C)cccc3Cl)s2)cc(N2CCN(CCO)CC2)n1 [Dasatinib] (partner 0.075 µM)
result: 0.838

query: Read the entry NC(=O)Nc1cc(-c2cccc(F)c2)sc1C(=O)N[C@H]1CCCNC1 [AZD7762] + Cc1cc(Nc2cc(N3CCN(C)CC3)nc(Sc3ccc(NC(=O)C4CC4)cc3)n2)n[nH]1 [Tozasertib] (partner 0.1 µM) and write its reported relative viability.
result: 0.68

query: Supply reported relative viability belonging to this compound: NC(=O)Nc1cc(-c2cccc(F)c2)sc1C(=O)N[C@H]1CCCNC1 [AZD7762] + Nc1nc2[nH]cc(CCc3ccc(C(=O)N[C@@H](CCC(=O)O)C(=O)O)cc3)c2c(=O)[nH]1 [Pemetrexed] (partner 0.2 µM)
result: 0.739

###

system: NCI-H2126; assay: relative viability (nuclei count vs DMSO), 5 days (fraction); higher = more cells survive; details: first compound 1 µM
Give relative viability for every item shown.
Please respond with just the number, no unit label.

query: Supply relative viability measured with NCI-H2126 for NC(=O)Nc1cc(-c2cccc(F)c2)sc1C(=O)N[C@H]1CCCNC1 [AZD7762] + Cc1nc(NC(=O)N2CCC[C@H]2C(N)=O)sc1-c1ccnc(C(C)(C)C(F)(F)F)c1 [Alpelisib] (partner 2 µM) .
result: 0.85

query: Under NCI-H2126, report relative viability for NC(=O)Nc1cc(-c2cccc(F)c2)sc1C(=O)N[C@H]1CCCNC1 [AZD7762] + C[C@]1(O)C[C@@H](c2nc(-c3ccc4ccc(-c5ccccc5)nc4c3)c3c(N)nccn32)C1 [Linsitinib] (partner 1 µM)
result: 0.805

query: State measured relative viability of the compound NC(=O)Nc1cc(-c2cccc(F)c2)sc1C(=O)N[C@H]1CCCNC1 [AZD7762] + COc1cc2c(Oc3ccc(NC(=O)C4(C(=O)Nc5ccc(F)cc5)CC4)cc3F)ccnc2cc1OCCCN1CCOCC1 [Foretinib] (partner 0.25 µM) with NCI-H2126.
result: 1.26

query: Quote NCI-H2126 relative viability for entry NC(=O)Nc1cc(-c2cccc(F)c2)sc1C(=O)N[C@H]1CCCNC1 [AZD7762] + Cc1cc(Nc2cc(N3CCN(C)CC3)nc(Sc3ccc(NC(=O)C4CC4)cc3)n2)n[nH]1 [Tozasertib] (partner 0.1 µM) .
result: 0.454
